# System: UACC-62 melanoma
# Assay protocol: NCI-60 one-dose screen, 48 h (100 = growth as untreated, 0 = no growth, -100 = all killed)
# Condition parameters: 10 µM
This is part of a sample that, as a whole, favours compounds with a hit. Of some 83,000 tested, about 20% had one in any assay.
Result type: growth (%)
Please reply with the bare figure in % and do not write the unit itself.

// solved cases for growth follow
INSERT INTO results (compound, result_number) VALUES
  ('COc1cc(OC)c(/C=C/C(=O)c2nc3ccccc3n2Cc2ccc(F)cc2)c(OC)c1', 62.5),
  ('CC(=O)Oc1ccccc1C(=O)[Se]C(=NC(C)C)NC(C)C', -44.2),
  ('O=C(/C=C/c1cccc(Br)c1)c1nc2ccccc2n1Cc1ccc(F)cc1', 22.4),
  ('C[C@H]1[C@H](OC(=O)CCC(=O)N(CCCc2cn(-c3ccc(C#N)cc3)nn2)CCNc2ccnc3cc(Cl)ccc23)O[C@@H]2OC3(C)CC[C@H]4[C@H](C)CC[C@@H]1[C@@]24OO3', 43.3),
  ('C[C@H]1[C@H](OC(=O)CCC(=O)N(CCCc2cn(-c3ccc(CN4CCOCC4)cc3)nn2)CCNc2ccnc3cc(Cl)ccc23)O[C@@H]2OC3(C)CC[C@H]4[C@H](C)CC[C@@H]1[C@@]24OO3', 16.6);

Enquiry: Data request, read-out growth, for CCOP(=O)(OCC)C(NC(C)=O)C(=O)SCCN (stereo unspecified)
Return: 95.8

Enquiry: Thanks! And O=C(NC([Se])=NC1CCCCC1)c1ccc2c(c1)OCO2 ?
Return: 76.3

Enquiry: Entry O=C(/C=C/c1ccc(F)cc1)c1nc2ccccc2n1Cc1ccc(F)cc1 please
Return: -41.7

Enquiry: Another compound: C[C@H]1[C@H](OC(=O)CCC(=O)Nc2cnccn2)O[C@@H]2OC3(C)CC[C@H]4[C@H](C)CC[C@@H]1[C@@]24OO3
Return: 26.3

Enquiry: Same read-out for O=C([Se]C1C=CCCC1)c1ccc(C(=O)[Se]C2C=CCCC2)s1 (stereo unspecified) ?
Return: -89.2

Enquiry: Then this compound: Cc1c2oc3c(C)ccc(C(=O)N[C@@H]4C(=O)N[C@H](C(C)C)C(=O)N5CCC[C@H]5C(=O)N(C)CC(=O)N(C)[C@@H](C(C)C)C(=O)OC4C)c3nc-2c(C(=O)N[C@@H]2C(=O)N[C@H](C(C)C)C(=O)N3CC(=O)C[C@H]3C(=O)N(C)CC(=O)N(C)[C@@H](C(C)C)C(=O)OC2C)c(N)c1=O (stereo partly specified)
Return: -57.5

----------
# Tested on: M14 melanoma
# Assay protocol: NCI-60 one-dose screen, 48 h
# Condition parameters: 10 µM
Compounds without any hit were thinned out: in the full panel of roughly 83,000, 20% have a hit. Activity calls are given as the source filed them. How the source made its calls: active means growth percent below 10; inactive means the rest.
Log the outcome using a class from active, inactive

Enquiry: So what was the verdict on CC[C@]12C=CCN3CC[C@@]4(c5ccc(OC)cc5N(C)[C@H]4[C@@](O)(C(=O)OC)[C@@H]1OC(=O)CCCC[P+](c1ccc(C)cc1)(c1ccc(C)cc1)c1ccc(C)cc1)[C@@H]32 in this test?
Return: active

Enquiry: Check O=C(NCCCCC(c1ccc(F)cc1)c1ccc(F)cc1)Nc1ccc([N+](=O)[O-])c(C(F)(F)F)c1 too.
Return: active

Enquiry: Field entry: COC(=O)CCn1c(-c2ccc(-n3cc(-c4ccc(O[C@H]5O[C@@H]6OC7(C)CC[C@H]8[C@H](C)CC[C@@H]([C@H]5C)[C@@]68OO7)cc4)nn3)cc2)nc2ccccc21
Return: inactive

Enquiry: What do we get for CC(C)N=C([Se])NC(=O)c1cccs1 ?
Return: active

Enquiry: What about this compound? O=C(/C=C/c1ccc(F)cc1)c1nc2ccccc2n1Cc1ccc(F)cc1
Return: active

Enquiry: Further, for O=C(/C=C/c1ccco1)c1nc2ccccc2n1Cc1ccc(Br)cc1 ?
Return: inactive

Enquiry: Item: CC[C@]12C=CCN3CC[C@@]4(c5ccc(OC)cc5N(C)[C@H]4[C@@](O)(C(=O)OC)[C@@H]1OC(=O)CCCC[P+](C1CCCCC1)(C1CCCCC1)C1CCCCC1)[C@@H]32
Return: active

Enquiry: Entry COCCOCCOCCOc1ccc(-n2cc(CCCN(CCNc3ccnc4cc(Cl)ccc34)C(=O)CCC(=O)O[C@@H]3O[C@@H]4OC5(C)CC[C@H]6[C@H](C)CC[C@@H]([C@H]3C)[C@@]46OO5)nn2)cc1 please
Return: inactive

Enquiry: Then this compound: O=C(/C=C/c1ccc(Cl)cc1)c1nc2ccccc2n1Cc1ccc(Br)cc1
Return: inactive

Enquiry: Also check C[C@H]1[C@@H](CC(=O)N[C@@H](Cc2coc3ccccc23)B(O)O)O[C@@H]2OC3(C)CC[C@H]4[C@H](C)CC[C@@H]1[C@@]24OO3
Return: active

Enquiry: Okay, and CC(=O)Oc1ccccc1C(=O)[Se]C(=NC(C)C)NC(C)C ?
Return: active

Enquiry: Then COc1cc2cc(C(=O)N3C[C@@H](CCl)c4c3cc(OC(=O)N3CCN(C)[C@@H]5CSSC[C@@H]53)c3ccccc43)[nH]c2c(OC)c1OC ?
Return: active

Enquiry: Would you mind doing O=C(/C=C/c1ccccc1)c1nc2ccccc2n1Cc1ccc(F)cc1 as well?
Return: active

Enquiry: // repeat for O=C(NC([Se])=NC1CCCCC1)c1ccc2c(c1)OCO2 and report
Return: inactive

Enquiry: Another compound: COc1cc2cc(C(=O)N3C[C@@H](CCl)c4c3cc(OC(=O)N3CCN(C)[C@@H]5CSSC[C@H]53)c3ccccc43)[nH]c2c(OC)c1OC
Return: active

Recorded values, source PubChem BioAssay (NCI).
